Where do these numbers come from? They come from ChEMBL document CHEMBL5579809.

assay.system: Protein cereblon/Histone acetyltransferase p300 (Homo sapiens) (UniProt Q09472+Q96SW2)
test.description: PROTAC activity at CRBN/HiBiT-tagged p300 in human HAP1 cells assessed as induction of p300 degradation by measuring degradation rate at 1000 nM measured over 24 hrs by luminescence based analysis
Assay type: cell-based
observation.type: Activity (h⁻¹)

Previously resolved entries follow.
compound	Activity, h⁻¹
CNC(=O)N1CCc2c(c(N3CCN(C(=O)NCCOCCNc4ccc5c(c4)C(=O)N(C4CCC(=O)NC4=O)C5=O)c4cc(-c5cnn(C)c5)c(C(F)(F)F)cc43)nn2C2CCOCC2)C1 (centres undefined)	0.02
CNC(=O)N1CCc2c(c(N3CCCc4cc(-c5cnn(C)c5)c(C(F)F)cc43)nn2C2CCN(C(=O)CCOCCOCCOCCOCCOCCOCCNc3ccc4c(c3)C(=O)N(C3CCC(=O)NC3=O)C4=O)CC2)C1 (centres undefined)	0.46

A: CNC(=O)N1CCc2c(c(N3CCN(C(=O)NCCOCCOCCOCCOCCNc4ccc5c(c4)C(=O)N(C4CCC(=O)NC4=O)C5=O)c4cc(-c5cnn(C)c5)c(C(F)(F)F)cc43)nn2C2CCOCC2)C1 (centres undefined)
B: CNC(=O)N1CCc2c(c(N3CCCc4cc(-c5cnn(C)c5)c(C(F)(F)F)cc43)nn2C2CCN(C(=O)CCOCCOCCOCCOCCNc3ccc4c(c3)C(=O)N(C3CCC(=O)NC3=O)C4=O)CC2)C1 (centres undefined)
Looking at A and B , which one comes out lower in Activity terms? Respond with the label that goes with your answer.
A
(A: 0.009 h⁻¹, B: 0.42 h⁻¹)

----------
assay.system: Protein cereblon/CREB-binding protein (Homo sapiens) (UniProt Q92793+Q96SW2)
Sequence (Q92793 2-2442 limits assumed): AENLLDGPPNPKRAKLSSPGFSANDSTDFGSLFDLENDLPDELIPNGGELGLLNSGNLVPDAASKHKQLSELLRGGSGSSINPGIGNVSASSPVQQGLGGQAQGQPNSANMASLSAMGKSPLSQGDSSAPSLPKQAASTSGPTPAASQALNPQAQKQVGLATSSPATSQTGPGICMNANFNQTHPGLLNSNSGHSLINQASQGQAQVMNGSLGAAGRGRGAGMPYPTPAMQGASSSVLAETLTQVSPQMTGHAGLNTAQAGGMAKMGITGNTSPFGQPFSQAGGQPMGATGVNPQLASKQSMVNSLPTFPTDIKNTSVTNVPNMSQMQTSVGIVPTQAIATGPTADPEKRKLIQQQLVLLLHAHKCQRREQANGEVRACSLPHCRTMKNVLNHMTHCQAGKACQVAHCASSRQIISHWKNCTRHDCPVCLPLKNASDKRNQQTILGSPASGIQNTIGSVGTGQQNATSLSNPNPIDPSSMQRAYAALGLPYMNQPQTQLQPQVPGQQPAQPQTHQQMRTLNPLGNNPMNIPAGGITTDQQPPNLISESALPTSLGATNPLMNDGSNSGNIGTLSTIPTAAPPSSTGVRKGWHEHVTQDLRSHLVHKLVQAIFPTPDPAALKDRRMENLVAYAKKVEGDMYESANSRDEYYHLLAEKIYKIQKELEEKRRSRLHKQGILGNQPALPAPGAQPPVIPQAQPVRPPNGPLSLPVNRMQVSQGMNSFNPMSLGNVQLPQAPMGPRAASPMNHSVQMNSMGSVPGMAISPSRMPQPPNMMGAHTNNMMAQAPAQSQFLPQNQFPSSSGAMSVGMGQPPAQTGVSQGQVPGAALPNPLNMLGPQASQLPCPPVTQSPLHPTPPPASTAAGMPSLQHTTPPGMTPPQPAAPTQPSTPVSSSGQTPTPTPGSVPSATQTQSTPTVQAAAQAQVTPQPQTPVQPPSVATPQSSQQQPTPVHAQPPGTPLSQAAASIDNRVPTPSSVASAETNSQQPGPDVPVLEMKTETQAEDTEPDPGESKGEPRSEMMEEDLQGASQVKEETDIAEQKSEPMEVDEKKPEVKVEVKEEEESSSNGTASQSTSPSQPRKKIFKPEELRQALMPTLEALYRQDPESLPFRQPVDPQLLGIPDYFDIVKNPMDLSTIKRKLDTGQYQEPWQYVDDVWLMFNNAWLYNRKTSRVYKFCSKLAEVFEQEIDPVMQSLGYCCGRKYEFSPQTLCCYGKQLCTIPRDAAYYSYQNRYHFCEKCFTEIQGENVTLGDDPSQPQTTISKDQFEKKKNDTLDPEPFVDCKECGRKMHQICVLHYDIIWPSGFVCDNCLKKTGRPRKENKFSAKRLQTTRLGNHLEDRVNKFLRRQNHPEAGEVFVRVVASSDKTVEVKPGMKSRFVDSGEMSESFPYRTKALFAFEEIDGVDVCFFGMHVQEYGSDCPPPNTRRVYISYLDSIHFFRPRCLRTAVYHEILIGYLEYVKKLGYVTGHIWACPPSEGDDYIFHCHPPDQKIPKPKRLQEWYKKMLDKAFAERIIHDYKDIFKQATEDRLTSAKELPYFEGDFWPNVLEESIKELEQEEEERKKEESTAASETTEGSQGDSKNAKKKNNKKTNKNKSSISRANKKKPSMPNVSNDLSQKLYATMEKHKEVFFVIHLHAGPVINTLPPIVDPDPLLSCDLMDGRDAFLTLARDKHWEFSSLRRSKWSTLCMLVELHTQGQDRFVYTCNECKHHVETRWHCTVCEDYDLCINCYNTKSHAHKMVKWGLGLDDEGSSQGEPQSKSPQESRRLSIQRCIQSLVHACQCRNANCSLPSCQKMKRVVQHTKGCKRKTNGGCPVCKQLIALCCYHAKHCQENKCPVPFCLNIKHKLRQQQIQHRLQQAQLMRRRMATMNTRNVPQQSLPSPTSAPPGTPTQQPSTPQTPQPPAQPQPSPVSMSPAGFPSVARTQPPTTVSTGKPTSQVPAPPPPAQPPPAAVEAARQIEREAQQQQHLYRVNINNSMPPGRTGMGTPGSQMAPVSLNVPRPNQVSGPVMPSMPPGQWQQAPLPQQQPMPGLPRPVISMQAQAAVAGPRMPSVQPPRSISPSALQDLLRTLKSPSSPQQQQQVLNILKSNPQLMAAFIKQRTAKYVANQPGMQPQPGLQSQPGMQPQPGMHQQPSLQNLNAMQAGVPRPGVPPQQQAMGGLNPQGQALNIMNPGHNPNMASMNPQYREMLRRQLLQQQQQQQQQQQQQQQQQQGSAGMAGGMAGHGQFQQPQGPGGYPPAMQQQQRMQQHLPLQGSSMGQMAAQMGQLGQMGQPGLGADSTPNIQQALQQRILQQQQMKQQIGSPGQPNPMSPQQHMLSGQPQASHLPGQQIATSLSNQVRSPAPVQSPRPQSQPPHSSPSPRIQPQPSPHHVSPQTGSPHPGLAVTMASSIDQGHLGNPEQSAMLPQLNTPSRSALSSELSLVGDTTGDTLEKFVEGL
Sequence (Q96SW2 whole entry partner): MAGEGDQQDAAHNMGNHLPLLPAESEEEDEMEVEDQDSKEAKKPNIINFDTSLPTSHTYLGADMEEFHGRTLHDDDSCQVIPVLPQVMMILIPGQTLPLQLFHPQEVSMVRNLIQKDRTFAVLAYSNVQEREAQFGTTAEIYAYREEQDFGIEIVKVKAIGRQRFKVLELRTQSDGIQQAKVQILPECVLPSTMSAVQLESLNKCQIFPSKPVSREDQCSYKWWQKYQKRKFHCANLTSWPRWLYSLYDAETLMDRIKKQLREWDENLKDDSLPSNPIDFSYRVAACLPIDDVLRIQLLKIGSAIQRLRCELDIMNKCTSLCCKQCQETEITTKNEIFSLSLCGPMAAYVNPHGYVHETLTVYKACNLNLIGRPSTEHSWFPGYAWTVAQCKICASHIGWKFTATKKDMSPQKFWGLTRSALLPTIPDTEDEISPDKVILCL
test.description: PROTAC activity at CRBN/HiBiT-tagged CBP in human HAP1 cells assessed as induction of CBP degradation by measuring maximal efficacy at 100 nM measured over 24 hrs by luminescence based analysis relative to control
Assay type: cell-based
observation.type: Emax (%)

compound	readout.unit	Emax
CNC(=O)N1CCc2c(c(N3CCCc4cc(-c5cnn(C)c5)c(C(F)F)cc43)nn2C2CCN(C(=O)CCOCCOCCOCCOCCNc3ccc4c(c3)C(=O)N(C3CCC(=O)NC3=O)C4=O)CC2)C1 (stereo not drawn)	%	89

P: CNC(=O)N1CCc2c(c(N3CCCc4cc(-c5cnn(CC(=O)NCCOCCOCCOCCOCCNc6ccc7c(c6)C(=O)N(C6CCC(=O)NC6=O)C7=O)c5)c(C(F)F)cc43)nn2C2CCOCC2)C1 (stereo not drawn)
Q: CNC(=O)N1CCc2c(c(N3CCCc4cc(-c5cnn(C)c5)c(C(F)F)cc43)nn2C2CCN(C(=O)CCOCCNc3ccc4c(c3)C(=O)N(C3CCC(=O)NC3=O)C4=O)CC2)C1 (stereo not drawn)
Lab note: record which item had the higher Emax, P or Q . Respond with the label that goes with your answer.
Q

----------
assay.system: Protein cereblon/CREB-binding protein (Homo sapiens) (UniProt Q92793+Q96SW2)
test.description: PROTAC activity at CRBN/HiBiT-tagged CBP in human HAP1 cells assessed as induction of CBP degradation by measuring degradation rate at 100 nM measured over 24 hrs by luminescence based analysis
Assay type: cell-based
observation.type: Activity (h⁻¹)

Previously resolved entries follow.
molecule	Activity [h⁻¹]
CNC(=O)N1CCc2c(c(N3CCCc4cc(-c5cnn(CC(=O)NCCOCCNc6ccc7c(c6)C(=O)N(C6CCC(=O)NC6=O)C7=O)c5)c(C(F)F)cc43)nn2C2CCOCC2)C1 (stereo unspecified)	0.22
CNC(=O)N1CCc2c(c(N3CCCc4cc(-c5cnn(CC(=O)NCCOCCOCCOCCOCCNc6ccc7c(c6)C(=O)N(C6CCC(=O)NC6=O)C7=O)c5)c(C(F)F)cc43)nn2C2CCOCC2)C1 (stereo unspecified)	0.11
CNC(=O)N1CCc2c(c(N3CCCc4cc(-c5cnn(C)c5)c(C(F)F)cc43)nn2C2CCN(C(=O)CCOCCOCCOCCOCCNc3ccc4c(c3)C(=O)N(C3CCC(=O)NC3=O)C4=O)CC2)C1 (stereo unspecified)	0.81
CNC(=O)N1CCc2c(c(N3CCCc4cc(-c5cnn(C)c5)c(C(F)F)cc43)nn2C2CCN(C(=O)CCOCCOCCOCCOCCOCCOCCNc3ccc4c(c3)C(=O)N(C3CCC(=O)NC3=O)C4=O)CC2)C1 (stereo unspecified)	0.79

1: CNC(=O)N1CCc2c(c(N3CCCc4cc(-c5cnn(C)c5)c(C(F)(F)F)cc43)nn2C2CCN(C(=O)CCOCCOCCOCCOCCNc3ccc4c(c3)C(=O)N(C3CCC(=O)NC3=O)C4=O)CC2)C1 (stereo unspecified)
2: CNC(=O)N1CCc2c(c(N3CCCc4cc(-c5cnn(C)c5)c(C(F)F)cc43)nn2C2CCN(C(=O)CCOCCNc3ccc4c(c3)C(=O)N(C3CCC(=O)NC3=O)C4=O)CC2)C1 (stereo unspecified)
Lab note: record which item had the higher Activity, 1 or 2 . Respond with the label that goes with your answer.
1
(1: 0.83 h⁻¹, 2: 0.19 h⁻¹)
